This listing pairs molecules with measured EC50.
# TEST_TARGET: 2-5A-dependent ribonuclease (Homo sapiens)
# ASSAY_EXPLANATION: Activation of human RNase L expressed in Escherichia coli BL21 (DE3) cells assessed as RNA cleavage using Cy5-rC11-UU-C7-BHQ2 as substrate by FRET assay
MEASURED_ENDPOINT: EC50

>>> assay_value("Nc1ncnc2c1ncn2[C@@H]1O[C@H](COP(=O)(O)CO[C@@H]2[C@@H](O)[C@@H](COP(=O)(O)O[C@@H]3[C@H](O)[C@@H](COP(=O)(O)O[C@@H]4[C@H](O)[C@@H](COP(=O)(O)O)O[C@H]4n4cnc5c(N)ncnc54)O[C@H]3n3cnc4c(N)ncnc43)O[C@H]2n2cnc3c(N)ncnc32)[C@@H](O)[C@H]1O")
"> 1 µM"
>>> assay_value("Nc1ncnc2c1ncn2[C@@H]1O[C@H](COP(=O)(O)O[C@@H]2[C@H](O)[C@@H](COP(=O)(O)O[C@@H]3[C@H](O)[C@@H](COP(=O)(O)O[C@@H]4[C@H](O)[C@@H](COCP(=O)(O)O)O[C@H]4n4cnc5c(N)ncnc54)O[C@H]3n3cnc4c(N)ncnc43)O[C@H]2n2cnc3c(N)ncnc32)[C@@H](O)[C@H]1O")
"0.053 µM"
>>> assay_value("Nc1ncnc2c1ncn2[C@@H]1O[C@H](COP(=O)(O)O[C@@H]2[C@H](O)[C@@H](COP(=O)(O)O[C@@H]3[C@H](O)[C@@H](COP(=O)(O)CO[C@@H]4[C@H](O)[C@@H](COP(=O)(O)O)O[C@H]4n4cnc5c(N)ncnc54)O[C@H]3n3cnc4c(N)ncnc43)O[C@H]2n2cnc3c(N)ncnc32)[C@@H](O)[C@H]1O")
"> 1 µM"
>>> assay_value("Nc1ncnc2c1ncn2[C@@H]1O[C@H](COP(=O)(O)CO[C@H]2[C@H](O)[C@@H](COP(=O)(O)O[C@@H]3[C@H](O)[C@@H](COP(=O)(O)O[C@@H]4[C@H](O)[C@@H](COP(=O)(O)O)O[C@H]4n4cnc5c(N)ncnc54)O[C@H]3n3cnc4c(N)ncnc43)O[C@H]2n2cnc3c(N)ncnc32)[C@@H](O)[C@H]1O")
"1 µM"
>>> assay_value("Nc1ncnc2c1ncn2[C@@H]1O[C@H](COP(=O)(O)O[C@@H]2[C@H](O)[C@@H](COCP(=O)(O)O[C@@H]3[C@H](O)[C@@H](COP(=O)(O)O[C@@H]4[C@H](O)[C@@H](COP(=O)(O)O)O[C@H]4n4cnc5c(N)ncnc54)O[C@H]3n3cnc4c(N)ncnc43)O[C@H]2n2cnc3c(N)ncnc32)[C@@H](O)[C@H]1O")
"0.3 µM"
>>> assay_value("Nc1ncnc2c1ncn2[C@@H]1O[C@H](COCP(=O)(O)O[C@@H]2[C@H](O)[C@@H](COP(=O)(O)O[C@@H]3[C@H](O)[C@@H](COP(=O)(O)O[C@@H]4[C@H](O)[C@@H](COP(=O)(O)O)O[C@H]4n4cnc5c(N)ncnc54)O[C@H]3n3cnc4c(N)ncnc43)O[C@H]2n2cnc3c(N)ncnc32)[C@@H](O)[C@H]1O")
"0.015 µM"

---

# TEST_TARGET: 2-5A-dependent ribonuclease (Homo sapiens, UniProt Q05823)
# Sequence (Q05823 whole entry): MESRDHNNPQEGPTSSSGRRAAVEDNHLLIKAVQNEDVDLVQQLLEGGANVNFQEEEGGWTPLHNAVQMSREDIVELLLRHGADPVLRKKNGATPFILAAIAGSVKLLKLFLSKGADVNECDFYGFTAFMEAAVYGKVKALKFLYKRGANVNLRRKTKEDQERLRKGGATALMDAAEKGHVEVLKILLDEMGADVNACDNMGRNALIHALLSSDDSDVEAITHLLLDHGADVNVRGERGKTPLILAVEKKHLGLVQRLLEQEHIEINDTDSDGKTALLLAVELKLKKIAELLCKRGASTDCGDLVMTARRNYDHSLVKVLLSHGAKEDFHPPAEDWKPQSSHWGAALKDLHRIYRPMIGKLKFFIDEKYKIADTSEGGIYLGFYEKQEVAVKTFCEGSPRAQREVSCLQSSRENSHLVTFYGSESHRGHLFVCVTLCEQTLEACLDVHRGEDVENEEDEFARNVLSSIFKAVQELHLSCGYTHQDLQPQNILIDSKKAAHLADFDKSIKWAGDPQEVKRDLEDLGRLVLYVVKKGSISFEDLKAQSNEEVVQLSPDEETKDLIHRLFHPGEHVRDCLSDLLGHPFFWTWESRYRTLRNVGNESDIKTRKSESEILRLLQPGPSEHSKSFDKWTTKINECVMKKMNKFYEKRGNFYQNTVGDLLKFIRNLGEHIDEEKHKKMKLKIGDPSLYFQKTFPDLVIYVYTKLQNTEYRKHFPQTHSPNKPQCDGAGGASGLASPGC
# ASSAY_EXPLANATION: Activation of human RNase L expressed in Escherichia coli BL21 (DE3) cells assessed as RNA cleavage using Cy5-rC11-UU-C7-BHQ2 as substrate by FRET assay
pEC50: −log10 of the molar value.
MEASURED_ENDPOINT: pEC50

>>> assay_value("Nc1ncnc2c1ncn2[C@@H]1O[C@H](COP(=O)(O)CO[C@@H]2[C@H](O)[C@@H](COP(=O)(O)O[C@@H]3[C@H](O)[C@@H](COP(=O)(O)O[C@@H]4[C@H](O)[C@@H](COP(=O)(O)O)O[C@H]4n4cnc5c(N)ncnc54)O[C@H]3n3cnc4c(N)ncnc43)O[C@H]2n2cnc3c(N)ncnc32)[C@@H](O)[C@H]1O")
6.70
>>> assay_value("Nc1ncnc2c1ncn2[C@@H]1O[C@H](COP(=O)(O)O[C@@H]2[C@H](O)[C@@H](COP(=O)(O)O[C@@H]3[C@H](O)[C@@H](COP(=O)(O)O[C@@H]4[C@@H](O)[C@@H](COCP(=O)(O)O)O[C@H]4n4cnc5c(N)ncnc54)O[C@H]3n3cnc4c(N)ncnc43)O[C@H]2n2cnc3c(N)ncnc32)[C@@H](O)[C@H]1O")
6.52
>>> assay_value("Nc1ncnc2c1ncn2[C@@H]1O[C@H](COCP(=O)(O)O[C@@H]2[C@H](O)[C@@H](COP(=O)(O)O[C@@H]3[C@H](O)[C@@H](COP(=O)(O)O[C@@H]4[C@H](O)[C@@H](COP(=O)(O)O)O[C@H]4n4cnc5c(N)ncnc54)O[C@H]3n3cnc4c(N)ncnc43)O[C@H]2n2cnc3c(N)ncnc32)[C@@H](O)[C@@H]1O")
8.19

---

# TEST_TARGET: 2-5A-dependent ribonuclease (Homo sapiens)
# ASSAY_EXPLANATION: Antagonist activity at human RNase L expressed in Escherichia coli BL21 (DE3) cells assessed as RNA cleavage using Cy5-C11-rUU-C7-BHQ2 as substrate by FRET assay in presence of natural activator pAAAA
# Assay type: functional
Activity calls are given as the source filed them. No cut-off for these calls is given here.
MEASURED_ENDPOINT: inhibition

>>> assay_value("Nc1ncnc2c1ncn2[C@@H]1O[C@H](COCP(=O)(O)O[C@@H]2[C@H](O)[C@@H](COP(=O)(O)O[C@@H]3[C@H](O)[C@@H](COP(=O)(O)O[C@@H]4[C@@H](O)[C@@H](COCP(=O)(O)O)O[C@H]4n4cnc5c(N)ncnc54)O[C@H]3n3cnc4c(N)ncnc43)O[C@H]2n2cnc3c(N)ncnc32)[C@H](O)[C@H]1O")
"inactive"
>>> assay_value("Nc1ncnc2c1ncn2[C@@H]1O[C@H](COCP(=O)(O)O[C@H]2[C@H](O)[C@@H](COCP(=O)(O)O[C@H]3[C@H](O)[C@@H](COCP(=O)(O)O[C@@H]4[C@H](O)[C@@H](COP(=O)(O)O)O[C@H]4n4cnc5c(N)ncnc54)O[C@H]3n3cnc4c(N)ncnc43)O[C@H]2n2cnc3c(N)ncnc32)[C@@H](O)[C@@H]1O")
"inactive"
>>> assay_value("Nc1ncnc2c1ncn2[C@@H]1O[C@H](COP(=O)(O)CO[C@@H]2[C@@H](O)[C@@H](COP(=O)(O)CO[C@@H]3[C@@H](O)[C@@H](COP(=O)(O)CO[C@@H]4[C@@H](O)[C@@H](COP(=O)(O)O)O[C@H]4n4cnc5c(N)ncnc54)O[C@H]3n3cnc4c(N)ncnc43)O[C@H]2n2cnc3c(N)ncnc32)[C@@H](O)[C@H]1O")
"inactive"
>>> assay_value("Nc1ncnc2c1ncn2[C@@H]1O[C@H](COCP(=O)(O)O[C@@H]2[C@H](O)[C@@H](COP(=O)(O)O[C@@H]3[C@H](O)[C@@H](COCP(=O)(O)O[C@@H]4[C@H](O)[C@@H](COCP(=O)(O)O)O[C@H]4n4cnc5c(N)ncnc54)O[C@H]3n3cnc4c(N)ncnc43)O[C@H]2n2cnc3c(N)ncnc32)[C@@H](O)[C@H]1O")
"inactive"
>>> assay_value("Nc1ncnc2c1ncn2[C@@H]1O[C@H](COCP(=O)(O)O[C@H]2[C@H](O)[C@@H](COCP(=O)(O)O[C@@H]3[C@H](O)[C@@H](COP(=O)(O)O[C@H]4[C@H](O)[C@@H](COCP(=O)(O)O)O[C@H]4n4cnc5c(N)ncnc54)O[C@H]3n3cnc4c(N)ncnc43)O[C@H]2n2cnc3c(N)ncnc32)[C@@H](O)[C@@H]1O")
"inactive"
